System: Coxsackievirus B5
Test: Antiviral activity against Coxsackievirus B5 infected in African green monkey Vero 76 cells after 3 days by plaque reduction assay
Assay type: functional, organism-based
Conditions: Enterovirus B, Vero, 72 h
pEC50: −log10 of the molar value.
Reported metric: pEC50

> print(dat)
                    structure.smiles.string  result
1  Cc1ccc(NCc2cn(-c3ccccc3)nc2-c2ccc(Cl)cc2)cc1  < 4.00

Below: the item to evaluate.
Please report the recorded pEC50 for FC(F)(F)c1ccc(-c2nn(-c3ccccc3)cc2CNc2ccc(Cl)cc2)cc1 . < 4.10

====

Form field: EC50 (one value per entry).
Test system: Human alphaherpesvirus 1
Experiment: Antiviral activity against HSV1 infected in African green monkey Vero 76 cells after 3 days by plaque reduction assay
Type: functional, organism-based
Details: Human alphaherpesvirus 1, Vero, 72 h

Example results:
> print(dat)
                    structure.smiles.string  reported.metric   result
1  FC(F)(F)c1ccc(NCc2cn(-c3ccccc3)nc2-c2ccc(Cl)cc2)cc1             EC50  > 18 µM
2  FC(F)(F)c1ccc(NCc2cn(-c3ccccc3)nc2-c2ccc(Br)cc2)cc1             EC50  > 28 µM
3  Cc1ccc(-c2nn(-c3ccccc3)cc2CNc2ccc(C(F)(F)F)cc2)cc1             EC50  > 45 µM
4  FC(F)(F)c1ccc(-c2nn(-c3ccccc3)cc2CNc2ccc(Cl)cc2)cc1             EC50  > 80 µM
5  Clc1ccc(NCc2cn(-c3ccccc3)nc2-c2ccccc2)cc1             EC50  > 65 µM

Given the entry FC(F)(F)c1ccc(-c2nn(-c3ccccc3)cc2CNc2ccc(Br)cc2)cc1 , what EC50 was observed with Human alphaherpesvirus 1? > 17 µM

Do the same for Cc1ccc(NCc2cn(-c3ccccc3)nc2-c2ccc(C(F)(F)F)cc2)cc1 please > 82 µM

Do the same for Brc1ccc(-c2nn(-c3ccccc3)cc2CNc2ccccc2)cc1 please > 52 µM

Do the same for Cc1ccc(-c2nn(-c3ccccc3)cc2CNc2ccc(Cl)cc2)cc1 please > 100 µM

Do the same for FC(F)(F)c1ccc(NCc2cn(-c3ccccc3)nc2-c2ccccc2)cc1 please > 75 µM

====

Form field: EC50 (one value per entry).
System: Vaccinia virus
Experiment: Antiviral activity against Vaccinia virus infected in African green monkey Vero 76 cells after 3 days by plaque reduction assay
Format: functional, organism-based, Orthopoxvirus vaccinia
Conditions: Orthopoxvirus vaccinia, Vero, 72 h

> print(dat)
                    structure.smiles.string   result
1  FC(F)(F)c1ccc(NCc2cn(-c3ccccc3)nc2-c2ccc(C(F)(F)F)cc2)cc1  > 26 µM

Please report the recorded EC50 for FC(F)(F)c1ccc(NCc2cn(-c3ccccc3)nc2-c2ccc(Cl)cc2)cc1 . > 18 µM

Do the same for Clc1ccc(NCc2cn(-c3ccccc3)nc2-c2ccc(Cl)cc2)cc1 please > 90 µM

Do the same for Brc1ccc(-c2nn(-c3ccccc3)cc2CNc2ccccc2)cc1 please > 52 µM

Do the same for Cc1ccc(-c2nn(-c3ccccc3)cc2CNc2ccc(C(F)(F)F)cc2)cc1 please > 45 µM

Do the same for FC(F)(F)c1ccc(NCc2cn(-c3ccccc3)nc2-c2ccccc2)cc1 please > 75 µM

Do the same for Cc1ccc(-c2nn(-c3ccccc3)cc2CNc2ccccc2)cc1 please > 52 µM

Do the same for FC(F)(F)c1ccc(NCc2cn(-c3ccccc3)nc2-c2ccc(Br)cc2)cc1 please > 28 µM

Do the same for Cc1ccc(-c2nn(-c3ccccc3)cc2CNc2ccc(Cl)cc2)cc1 please > 100 µM

Do the same for FC(F)(F)c1ccc(-c2nn(-c3ccccc3)cc2CNc2ccc(Cl)cc2)cc1 please > 80 µM
